Here, compounds appear alongside Ki reported for 5-hydroxytryptamine receptor 1A (Rattus norvegicus) in the literature.
# target system: 5-hydroxytryptamine receptor 1A (Rattus norvegicus)
# Sequence (P19327 whole entry): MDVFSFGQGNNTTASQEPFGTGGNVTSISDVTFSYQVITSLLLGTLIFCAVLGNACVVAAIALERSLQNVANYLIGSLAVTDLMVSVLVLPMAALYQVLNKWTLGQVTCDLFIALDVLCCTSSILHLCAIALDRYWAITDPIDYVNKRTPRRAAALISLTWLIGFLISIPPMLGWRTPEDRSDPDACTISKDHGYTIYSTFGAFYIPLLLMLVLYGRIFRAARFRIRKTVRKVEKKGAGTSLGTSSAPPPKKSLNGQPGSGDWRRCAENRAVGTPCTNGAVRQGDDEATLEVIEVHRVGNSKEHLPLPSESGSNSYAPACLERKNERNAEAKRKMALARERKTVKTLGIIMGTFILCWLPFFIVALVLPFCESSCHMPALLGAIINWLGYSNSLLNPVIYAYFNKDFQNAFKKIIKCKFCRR

-- ask Suppose we examine the compound COc1ccccc1N1CCN(CCCCNC(=O)c2ccc(O)cc2)CC1 ; what Ki value has been reported?
-- reply 5.4 nM

-- ask Suppose we examine the compound C1=C(c2cccc(CNCCOc3cccc4c3OC3(CC3)C4)c2)CCC1 ; what Ki value has been reported?
-- reply 6.17 nM

-- ask Suppose we examine the compound O=C(c1ccc(Cl)c(Cl)c1)N1CCC(CNCc2cccc(-c3ncc[nH]3)n2)CC1 ; what Ki value has been reported?
-- reply 2.69 nM

-- ask Suppose we examine the compound CCCN(CCNS(=O)(=O)c1ccc(C)cc1)C1COc2cccc(OC)c2C1 (stereo not given) ; what Ki value has been reported?
-- reply 1 nM

-- ask Suppose we examine the compound CN1CCc2ccc(OCCCCN3CCN(c4cccc(Cl)c4Cl)CC3)cc2C1=O ; what Ki value has been reported?
-- reply 119 nM

-- ask Suppose we examine the compound Cc1cccc(CNCC2CCN(C(=O)c3ccc(Cl)c(Cl)c3)CC2)n1 ; what Ki value has been reported?
-- reply 4.07 nM

-- ask Suppose we examine the compound O=C(CC1CC2CCC1C2)N[C@H]1CC(=O)N(CCCCN2CCN(c3cccc(Cl)c3)CC2)C1=O (stereo not given in full) ; what Ki value has been reported?
-- reply 21 nM

-- ask Suppose we examine the compound COc1ccccc1N1CCN(CCCn2c(=O)ccn3c4c(=O)n(C)c(=O)n(C)c4nc23)CC1 ; what Ki value has been reported?
-- reply 10.4 nM

-- ask Suppose we examine the compound O=C1C2CCCCN2C(=O)N1CCN1CCN(c2ccc([N+](=O)[O-])cc2)CC1 (stereo not given) ; what Ki value has been reported?
-- reply > 10000 nM

-- ask Suppose we examine the compound O=c1ccc(OCCCN2CCN(c3nsc4ccccc34)CC2)nn1-c1ccc(Cl)c(Cl)c1 ; what Ki value has been reported?
-- reply 898 nM

* * *

Here, compounds appear alongside pKi reported for 5-hydroxytryptamine receptor 1A (Rattus norvegicus, UniProt P19327) in the literature.
pKi field: float, defined as -log10 of concentration (mol/L).

-- ask Suppose we examine the compound Cn1c(=O)sc2cc(CCN3CCN(Cc4ccc(Cl)c(Cl)c4)CC3)ccc21 ; what pKi value has been reported?
-- reply 7.52

-- ask Suppose we examine the compound O=C1CC(=C(c2ccccc2)c2ccccc2)C(=O)N1CCCCN1CCN(c2cccc(Cl)c2)CC1 ; what pKi value has been reported?
-- reply 7.41

-- ask Suppose we examine the compound COc1ccccc1N1CCN(CCCCNC(=O)C2CC3C=CC2C3)CC1 (stereo not given) ; what pKi value has been reported?
-- reply 9.42

-- ask Suppose we examine the compound O=C1CC(c2c[nH]c3ccccc23)C(=O)N1CCCN1CC=C(c2c[nH]c3ccc(Cl)cc23)CC1 (racemic) ; what pKi value has been reported?
-- reply 6.54

* * *

# target system: 5-hydroxytryptamine receptor 1A (Rattus norvegicus, UniProt P19327)
# Sequence (P19327 whole entry): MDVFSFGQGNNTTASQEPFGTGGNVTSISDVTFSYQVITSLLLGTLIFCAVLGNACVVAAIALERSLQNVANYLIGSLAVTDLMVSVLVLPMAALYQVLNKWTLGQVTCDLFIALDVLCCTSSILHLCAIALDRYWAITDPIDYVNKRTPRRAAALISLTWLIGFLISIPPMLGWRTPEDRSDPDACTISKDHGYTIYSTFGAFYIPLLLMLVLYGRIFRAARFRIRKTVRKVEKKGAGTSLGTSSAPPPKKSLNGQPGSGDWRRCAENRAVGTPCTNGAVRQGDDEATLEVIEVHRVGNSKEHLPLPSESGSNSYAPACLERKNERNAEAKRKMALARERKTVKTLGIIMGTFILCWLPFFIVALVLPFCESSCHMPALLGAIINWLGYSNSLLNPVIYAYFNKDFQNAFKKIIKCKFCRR
Here, compounds appear alongside Ki reported for 5-hydroxytryptamine receptor 1A (Rattus norvegicus, UniProt P19327) in the literature.
Numeric only. Scale: nM

-- ask Suppose we examine the compound Cl.O=C1C2C3CCCC(CC3)C2C(=O)N1CCCCN1CCN(c2ncccn2)CC1 (stereo not given) ; what Ki value has been reported?
-- reply 5

-- ask Suppose we examine the compound COc1ccccc1N1CCN(CCn2nc(-c3ccc(C)cc3)c3ccccc3c2=O)CC1 ; what Ki value has been reported?
-- reply 473

-- ask Suppose we examine the compound O=C(NCC#CCNCc1cccc(-n2cccn2)n1)c1ccc(Cl)c(Cl)c1 ; what Ki value has been reported?
-- reply 245

-- ask Suppose we examine the compound Cl.O=C1C2C3C=CC(C4C=CC43)C2C(=O)N1CCCCN1CCN(c2cccc(C(F)(F)F)c2)CC1 (stereo not given) ; what Ki value has been reported?
-- reply 25

-- ask Suppose we examine the compound COc1ccccc1N1CCN(CCCCCn2nc(-n3cnc4ccccc43)ccc2=O)CC1 ; what Ki value has been reported?
-- reply 127

-- ask Suppose we examine the compound COc1ccccc1N1CCN(CCCOc2ccc3[nH]cnc3c2)CC1 ; what Ki value has been reported?
-- reply 15.1

-- ask Suppose we examine the compound O=c1ccc(OCCCN2CCC(c3noc4cc(F)ccc34)CC2)nn1-c1cc(F)cc(F)c1 ; what Ki value has been reported?
-- reply 38.1

-- ask Suppose we examine the compound COc1ccccc1N1CCN(CCCCCC(=O)c2ccccc2)CC1 ; what Ki value has been reported?
-- reply 6.4

-- ask Suppose we examine the compound COc1cc2nc(N3CCN(C(=O)c4ccco4)C4CCCCC43)nc(N)c2cc1OC (racemic) ; what Ki value has been reported?
-- reply 6920

-- ask Suppose we examine the compound O=C1CC(=C(c2ccccc2)c2ccccc2)C(=O)N1CN1CCN(c2cccc(Cl)c2)CC1 ; what Ki value has been reported?
-- reply 49.4

-- ask Suppose we examine the compound COc1ccccc1N1CCN(CCCNc2ccn3c(n2)nc2c3c(=O)n(C)c(=O)n2C)CC1 ; what Ki value has been reported?
-- reply 34

-- ask Suppose we examine the compound O=C(NCCCN1CCN(c2cccc(Cl)c2)CC1)[C@@H]1CCC(=O)N1C(=O)C1CCCCC1 ; what Ki value has been reported?
-- reply 1730

-- ask Suppose we examine the compound COc1ccccc1N1CCN(CCn2nc(-c3ccccc3)c(C(C)=O)c(N)c2=O)CC1 ; what Ki value has been reported?
-- reply 123

-- ask Suppose we examine the compound CCOc1nc2c(c(=O)n(C)c(=O)n2C)n1CCCN1CCc2ccccc2C1 ; what Ki value has been reported?
-- reply 1070

-- ask Suppose we examine the compound CCOc1nc2c(c(=O)n(C)c(=O)n2C)n1CCCN1CCN(c2cccc(Cl)c2)CC1 ; what Ki value has been reported?
-- reply 190

-- ask Suppose we examine the compound COc1ccccc1N1CCN(CCCCN2CCn3c(cc4ccccc43)C2=O)CC1 ; what Ki value has been reported?
-- reply 4.9

-- ask Suppose we examine the compound COc1ccc(CCCCN(C)CCOc2cc(F)cc3c2OCCC3=O)cc1 ; what Ki value has been reported?
-- reply 52.7

-- ask Suppose we examine the compound CCCN(CCC)CC(O)CO (stereo not given) ; what Ki value has been reported?
-- reply 2750

-- ask Suppose we examine the compound Cn1c(=O)c2c(nc3n(CCCCN4CCN(c5ccc(Cl)cc5)CC4)c(=O)ccn23)n(C)c1=O ; what Ki value has been reported?
-- reply 58

* * *

Here, molecules appear alongside pKi reported for 5-hydroxytryptamine receptor 1A (Rattus norvegicus, UniProt P19327) in the literature.
# target system: 5-hydroxytryptamine receptor 1A (Rattus norvegicus, UniProt P19327)
# Sequence (P19327 whole entry): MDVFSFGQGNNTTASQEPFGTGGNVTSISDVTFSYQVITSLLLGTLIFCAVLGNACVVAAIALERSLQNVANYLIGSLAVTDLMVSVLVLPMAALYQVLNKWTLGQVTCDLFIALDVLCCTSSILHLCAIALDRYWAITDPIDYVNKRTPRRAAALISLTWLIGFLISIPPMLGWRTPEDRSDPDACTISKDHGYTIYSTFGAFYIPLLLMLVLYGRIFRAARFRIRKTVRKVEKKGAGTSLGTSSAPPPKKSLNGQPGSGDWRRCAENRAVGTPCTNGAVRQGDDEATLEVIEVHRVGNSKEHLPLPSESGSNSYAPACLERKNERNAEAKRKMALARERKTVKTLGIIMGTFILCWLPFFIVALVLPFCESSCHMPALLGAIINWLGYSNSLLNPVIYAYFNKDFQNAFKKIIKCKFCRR
pKi field: float, defined as -log10 of concentration (mol/L).

-- ask Which measured pKi belongs to COc1ccccc1N1CCN(CCCCN2C(=O)CC3(CCCC3)CC2=O)CC1 , tested on 5-hydroxytryptamine receptor 1A (Rattus norvegicus, UniProt P19327)?
-- reply 8.70

-- ask Which measured pKi belongs to N#Cc1ccccc1N1CCN(CCCCN2C(=O)C3CCCN3C2=O)CC1 (stereo unspecified) , tested on 5-hydroxytryptamine receptor 1A (Rattus norvegicus, UniProt P19327)?
-- reply 8.40

-- ask Which measured pKi belongs to COc1ccc(CCCCNCCOc2cc(F)cc3c2OCCC3OC)cc1 (stereo unspecified) , tested on 5-hydroxytryptamine receptor 1A (Rattus norvegicus, UniProt P19327)?
-- reply 7.74

-- ask Which measured pKi belongs to O=C1/C(=C\c2cccnc2)c2ccccc2N1CCCN1CCN(c2cccc(Cl)c2)CC1 , tested on 5-hydroxytryptamine receptor 1A (Rattus norvegicus, UniProt P19327)?
-- reply 7.24

-- ask Which measured pKi belongs to CCCN(CCC)C1COc2c(cccc2-c2ccoc2)C1 (stereo unspecified) , tested on 5-hydroxytryptamine receptor 1A (Rattus norvegicus, UniProt P19327)?
-- reply 8.24

-- ask Which measured pKi belongs to O=C(NCCN1CCN(/C(O)=C2/COCCO2)CC1)c1ccc(F)cc1 , tested on 5-hydroxytryptamine receptor 1A (Rattus norvegicus, UniProt P19327)?
-- reply 8.04

-- ask Which measured pKi belongs to CC(=O)NCc1ccc(CCCCN2CCN(c3ccccc3)CC2)cc1 , tested on 5-hydroxytryptamine receptor 1A (Rattus norvegicus, UniProt P19327)?
-- reply 8.22

-- ask Which measured pKi belongs to O=c1[nH]c2ccccc2n1CCN1CCN(c2ccccc2)CC1 , tested on 5-hydroxytryptamine receptor 1A (Rattus norvegicus, UniProt P19327)?
-- reply 6.41

-- ask Which measured pKi belongs to COc1ccccc1N1CCN(CCCN2C(=O)c3ccccc3C2=O)CC1 , tested on 5-hydroxytryptamine receptor 1A (Rattus norvegicus, UniProt P19327)?
-- reply 7.70

-- ask Which measured pKi belongs to CN1CCc2ccc3c4c2[C@H]1Cc1cccc(c1-4)[C@H]3O , tested on 5-hydroxytryptamine receptor 1A (Rattus norvegicus, UniProt P19327)?
-- reply 7.51
